# Measurement Target: Bcl-2-related protein A1 (Homo sapiens) (UniProt Q16548)
# Sequence (Q16548 whole entry, looked up): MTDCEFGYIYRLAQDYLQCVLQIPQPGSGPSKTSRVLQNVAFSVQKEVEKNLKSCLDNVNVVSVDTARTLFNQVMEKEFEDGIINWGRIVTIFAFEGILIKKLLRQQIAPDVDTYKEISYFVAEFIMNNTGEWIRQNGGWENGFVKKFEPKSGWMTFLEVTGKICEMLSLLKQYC
# Method Notes: inhibitors of Bim binding to Bfl-1, dose response, biochemical, multiplexed, bead-based flow cytometry (AID 1320); note: test concentration not given here
# Experimental Parameters: Bim peptide-Bfl-1 binding, fluorescence
The source made the active and inactive calls. The rule behind the calls is not given here.
Observed Property: percent span (inhibition)

// returns reported percent span (inhibition) for input CCC(CC)C(=O)Nc1cccc(SC)c1
inactive

// returns reported percent span (inhibition) for input CC1Nc2ccccc2C(=O)N1NS(=O)(=O)c1ccccc1 (stereo not drawn)
inactive

// returns reported percent span (inhibition) for input COc1ccc2nc(C)cc(SCC(=O)N/N=C/c3ccc(O)cc3O)c2c1
inactive
